As shown below, each of these molecules has a reported slope value.
test system: Alpha-2C adrenergic receptor (Homo sapiens) (UniProt P18825)
Sequence (P18825 whole entry, looked up): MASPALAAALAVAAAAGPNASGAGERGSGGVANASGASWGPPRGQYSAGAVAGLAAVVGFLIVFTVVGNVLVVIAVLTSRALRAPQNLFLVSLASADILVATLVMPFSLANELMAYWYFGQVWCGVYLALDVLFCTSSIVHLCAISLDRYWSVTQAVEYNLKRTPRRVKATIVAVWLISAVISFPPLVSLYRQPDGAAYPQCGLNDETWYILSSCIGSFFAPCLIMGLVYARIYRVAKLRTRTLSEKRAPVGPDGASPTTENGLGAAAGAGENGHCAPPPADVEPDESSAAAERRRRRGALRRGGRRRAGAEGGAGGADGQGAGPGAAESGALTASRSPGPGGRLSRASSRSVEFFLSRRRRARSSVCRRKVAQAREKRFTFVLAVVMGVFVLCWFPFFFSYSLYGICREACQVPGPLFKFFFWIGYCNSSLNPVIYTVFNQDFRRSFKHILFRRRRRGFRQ
procedure details: compounds altering alpha2C-coupled GIRK flux – cell-based, HEK293 alpha2C/GIRK1/2, thallium flux, primary screen (AID 624);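 note: slope of fluorescence ratio to pre-addition baseline per second over 15 to 24 s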
measurement setup: thallium flux BTC fluorescence, at 10 µM, actives lie on both sides
Calls of active or inactive are those of the source.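 Rule for the calls: active = fluorescence slope after compound addition differing from the mean of all screened samples at 99.7% confidence, in either direction; inactive = the rest.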
reported property: slope

* COc1ccccc1NC(=O)Cn1nnc(-c2ccccc2NC(=O)c2ccco2)n1 | 0.00705 (inactive)
* O=C(c1cc(C2CC2)on1)N1CCN(C(c2ccccc2)c2ccccc2)CC1 | 0.00569 (inactive)
* CN1CCN(c2oc(COc3ccc(-c4ccccc4)cc3)nc2C#N)CC1 | 0.00577 (inactive)
* CCOC(=O)Cc1csc(NC(=O)CN(C)S(=O)(=O)c2ccc3c(c2)CCC(=O)N3)n1 | 0.00704 (inactive)
* Cc1cc(NC(=O)CCOc2ccccc2)no1 | 0.00305 (inactive)
* O=C(CSc1nnc(Cn2c(=O)sc3ccccc32)n1-c1ccccc1)NCC1CCCO1 (configuration not stated) | 0.00648 (inactive)
* CCOC(=O)N1CCN(c2c(NCC3CCN(Cc4cccc(C)c4)CC3)c(=O)c2=O)CC1 | 0.00653 (inactive)
* CCN(CC)CCNC(=O)c1ccc(CS(=O)(=O)c2ccc(Br)cc2)o1 | 0.00568 (inactive)
* CC1CCN(C(=O)CSc2nc3c(cnn3-c3ccccc3)c(=O)[nH]2)CC1 | 0.00596 (inactive)
* CN(C)CC(C(=O)c1ccccc1)c1ccccc1 (configuration not stated) | 0.0054 (inactive)
* COC(=O)c1cccc(NC(=O)Cc2coc3cc(OC)ccc23)c1 | 0.0055 (inactive)
* COc1ccc(C)cc1S(=O)(=O)N1CCN(S(=O)(=O)c2cc(C)ccc2OC)CC1 | 0.00449 (inactive)
* CN(C)c1cc(NC(=O)CN2CCOCC2)c2ccccc2n1 | 0.00612 (inactive)
* CC(=O)NC(CCS(C)(=O)=O)C(=O)Nc1cccc(C)c1 (configuration not stated) | 0.00598 (inactive)
* CCc1nnc2c3cnn(-c4ccccc4)c3ncn12 | 0.00633 (inactive)
* COc1ccc(CN(C2CCCC2)S(=O)(=O)c2ccc(-n3cnnn3)cc2)cc1OC | 0.00406 (inactive)
* CCN1CCN(c2ncnc3c2oc2nc(C)c4c(c23)CC(C)(C)OC4)CC1 | 0.00388 (inactive)
* Cc1cc(C(F)(F)F)nc(SCC(=O)NC2=NC(=O)C(C)S2)n1 (configuration not stated) | 0.00515 (inactive)
* CCN1C(=O)C(C(=O)Nc2ccc(OC)cc2)C2CC1(C)Oc1ccccc12 (configuration not stated) | 0.0052 (inactive)
* CCOc1cccc(C(=O)N(Cc2ccco2)C2CCS(=O)(=O)C2)c1 (configuration not stated) | 0.00467 (inactive)
* CSc1nc(C)cc(OCC(=O)N2CCOCC2)n1 | 0.00307 (inactive)
* CCCSCCCNC(=O)Cn1cc2c(n1)CCC(C)C2 (configuration not stated) | 0.00719 (inactive)

----------
procedure details: endothelial E-selectin expression blockers – imaging, HUVEC, immunofluorescence, MLSMR starter and 10KST1 sets, primary screen (AID 487);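 note: 100% = median nuclei count of all wells on the same plate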
measurement setup: HUVEC TNFalpha-induced E-selectin immunofluorescence imaging, at 2 µM; measured here: cell number, toxicity
reported property: nuclei count

- Cc1cccc2cc(COC(=O)C(C)(C)C)c(=O)[nH]c12: 89.1%
- Cc1cccc(-c2cc3nc(C)cc(NCCCN(C)C)n3n2)c1: 98.7%
- CCC1CCc2c(sc3ncnc(N4CCOCC4)c23)C1 (stereo unspecified): 114%
- Nc1nc2n(n1)C(c1c(F)cccc1Cl)CC(c1ccc(F)cc1)N2 (stereo unspecified): 110%
- COC(=O)CN1C(=O)CC(C)(C)S(=O)c2ccccc21 (stereo unspecified): 98.5%
- O=c1[nH]c2ccc(Br)cc2c(-c2ccccc2)c1N1CCOCC1: 119%

----------
procedure details: blockers of RIG-like receptor reporter activation – cell-based, Sendai virus stimulus, luciferase, 10K MLSCN set, TLR/RLR signaling modifier project, primary screen (AID 602276);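 note: firefly luciferase from ISG56 promoter only with Renilla not read in this screen; 0% = Sendai virus plus DMSO and 100% = medium plus DMSO without virus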
measurement setup: HEK293 RL24 IRF3 luciferase reporter, at 10 µM, stronger effect = higher value
As shown below, each of these compounds has a reported inhibition value.
reported property: inhibition (%)

- CC(Sc1nnnn1C)C(=O)Nc1ccc(Oc2ccccc2)cc1 (stereo unspecified): -8.41
- C=C(C)COc1ccc(-c2n[nH]c(C)c2-c2ccccc2)c(O)c1: -6.65
- Cc1ccc2[nH]c(=O)c(CN(Cc3ccc4c(c3)OCO4)Cc3nnnn3Cc3ccco3)cc2c1: 9.33
- N=c1c(C(=O)NCc2ccc3c(c2)OCO3)cc2c(=O)n3ccccc3nc2n1Cc1cccnc1: 13.3
- Cc1cc(-c2ccccc2)c(C#N)c(N)n1: 18.7
- O=C1N(CCCCN2C(=O)C3(OCCO3)c3ccccc32)c2ccccc2C12OCCO2: 9.05
- CC(=O)NCc1nc2ccccc2n1C(C)C: 7.73
- CC(C)Cc1nnc(NC(=O)CCC(=O)N2CCOCC2)s1: 12.2
- COc1ccc(Br)cc1C1N2CC3(C)CN1CC(C)(C2)C3=O (stereo unspecified): -3.74
- CCOC(=O)C1CCCN(CCCc2ccccc2)C1 (stereo unspecified): 6.58
- CCOC(=O)N1CCN(c2c(NCCN(C)Cc3ccccc3)c(=O)c2=O)CC1: 1.64

----------
procedure details: reduction of polyQ htt aggregates in cells – imaging, exon1htt(103Q)mCFP cells, high-content imaging, primary screen (AID 483);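 note: compound exposure lasted 3 days before fixation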
measurement setup: exon1htt(103Q)mCFP cell line, aggregate imaging, at 2 µM; stronger effect = higher value
reported property: inhibition of aggregation (%)

- COc1cccc(-c2nc(CS(=O)(=O)CC(=O)N3CCN(c4ccccn4)CC3)c(C)o2)c1: 2.6
- CCN(c1cccc(C(F)(F)F)c1)S(=O)(=O)c1ccc2c(c1)CCN2C(=O)C1CC1: 3.1
- CCOC(=O)C1CSC(CC(=O)Nc2ccc(Cl)cc2)C(=O)N1 (stereo not given): 7.4
- Cc1ccc2c(c1C)NC(=O)C2(O)CC(=O)c1ccc2c(c1)OCO2 (stereo not given): 34.5
- C=CCSC1=C(C#N)C(c2ccccc2C)CC(=O)N1 (stereo not given): -12.2

----------
test system: Voltage-gated potassium channel subunit beta-2 (Rattus norvegicus) (UniProt P62483)
Sequence (P62483 whole entry, looked up): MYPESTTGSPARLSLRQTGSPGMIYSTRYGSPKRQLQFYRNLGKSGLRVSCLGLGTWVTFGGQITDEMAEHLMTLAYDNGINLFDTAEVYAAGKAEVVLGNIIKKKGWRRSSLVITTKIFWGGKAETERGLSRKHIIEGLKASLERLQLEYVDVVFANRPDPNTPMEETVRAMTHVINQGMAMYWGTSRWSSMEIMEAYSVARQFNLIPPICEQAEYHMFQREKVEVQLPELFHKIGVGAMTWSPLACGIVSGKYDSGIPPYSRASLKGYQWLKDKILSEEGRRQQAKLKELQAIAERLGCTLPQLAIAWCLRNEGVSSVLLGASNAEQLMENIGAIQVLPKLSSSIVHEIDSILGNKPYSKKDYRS
procedure details: inhibitors of rat Kvbeta2 reductase activity – biochemical, NADPH fluorescence, primary screen (AID 622);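 note: slope of raw intensity against log time taken from 70 to 1610 s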
measurement setup: recombinant KvBeta, 4-cyanobenzaldehyde reduction, at 10 µM, stronger effect = higher value
reported property: fluorescence slope

- CN(Cc1ccccc1)C(=O)c1ccc2c(c1)OCO2: -0.595
- CN1C(=O)C(CC(=O)N2CCN(C(c3ccccc3)c3ccccc3)CC2)N(C)C1=O (stereo not given): -0.288
- COc1ccc(C(=O)N(CCN2CCOCC2)CC(=O)NC2CCCC2)cc1OC: -0.597
- C=CCNC(=O)CSc1nc2sc(C)c(C)c2c(=O)[nH]1: -0.556
- O=c1c(-c2ccccc2)coc2c(CN3CCOCC3)c(O)ccc12: -0.0601
- Cc1nc(C)c(C(=O)C2=C(O)C(=O)N(CCCn3ccnc3)C2c2ccccc2)s1 (stereo not given): -0.394
- CCOCCCNC(=O)C1CCC(CNS(=O)(=O)c2cccc3nsnc23)CC1 (stereo not given): -0.476
- Cc1ccc(C)c(N2CCN(C(=O)CCCn3c(=S)[nH]c4cc5c(cc4c3=O)OCO5)CC2)c1: -0.433
- COc1ccc(NC(=O)CCc2nc(-c3ccccc3F)no2)cc1: -0.47
- COc1ccccc1CNC(=O)C1CCCN(S(=O)(=O)c2cccc3cccnc23)C1 (stereo not given): -0.592

----------
test system: Voltage-gated potassium channel subunit beta-2 (Rattus norvegicus)
procedure details: enhancers of rat Kvbeta2 NADPH turnover – biochemical, NADPH fluorescence, primary screen (AID 623);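 note: fluorescence intensity change per second fitted from 20 to 320 s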
measurement setup: Recombinant KvBeta, NADPH fluorescence decrease slope, 10 min; at 10 µM; stronger effect = lower value
The source made the active and inactive calls.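 Rule for the calls: active = NADPH fluorescence slope more negative than the mean of all samples by about 3 SD, 99.7% confidence; inactive = the rest.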
reported property: NADPH fluorescence slope

- CCOc1ccc(C(C)=O)cc1COc1ccc(-n2cnnn2)cc1: -6.6e-05 (inactive)
- CCN(CC)c1ccc2cc(NC(=O)CCC(=O)O)c(=O)oc2c1: -5.3e-06 (inactive)
- CCN(CC)CCNC(=O)c1ccc(N2CCCCC2)c(NS(=O)(=O)c2ccc(C)cc2)c1: -3.5e-05 (inactive)
- O=C(NCCN1CCCCCC1)c1ccc(CS(=O)(=O)c2ccc(Br)cc2)o1: 1.2e-05 (inactive)
- CC(C)(Oc1ccc(Cl)cc1)C(=O)NC1CCSC1=O (stereo unspecified): -2.8e-05 (inactive)
- COc1ccc(OC)c(-c2nnc(SCC(=O)NC3CCCCC3)o2)c1: -1.4e-05 (inactive)

----------
procedure details: endothelial E-selectin expression blockers – imaging, HUVEC, immunofluorescence, MLSMR starter and 10KST1 sets, primary screen (AID 487);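 note: 100% = median nuclei count of all wells on the same plate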
measurement setup: HUVEC TNFalpha-induced E-selectin immunofluorescence imaging, at 2 µM; measured here: cell number, toxicity
reported property: nuclei count (%)

• Cc1cccnc1NC(=O)CCCN1C(=O)c2ccccc2C1=O = 87.7
• COC(=O)c1sccc1NC(=O)c1csc(C)c1 = 123
• O=S(=O)(c1ccc(N2CCN(c3ccc(F)cc3)CC2)cc1)N1CCCC1 = 106
• Cc1ccc(SC(C)c2nc(-c3ccccc3)no2)cc1 (stereo not given) = 42.1
• O=C1CN(Cc2ccccc2)C(=NCc2ccco2)S1 = 97.4
• COc1ccc(OC)c(S(=O)(=O)N2CCN(c3c(C)cccc3C)CC2)c1 = 102
• O=C(NCC(c1cccnc1)N1CCOCC1)c1ccco1 (stereo not given) = 129
• COCCn1c(CN2CCN(c3cccc(Cl)c3)CC2)nc2c1c(=O)n(C)c(=O)n2C = 120
• COC(=O)C(C)NC(=O)C12CC3CC(CC(C3)C1)C2 (stereo not given) = 124
• O=C(CN1CCC(c2nc3ccccc3s2)CC1)NCc1cccs1 = 103
• CC1CCN(C(=O)CSc2nc3c(cnn3-c3ccccc3)c(=O)[nH]2)CC1 = 79.5
• Cc1nn(-c2ccc(Cl)cc2)c2sc(C(=O)N3CCN(c4ccccn4)CC3)cc12 = 108
• COc1ccc(S(=O)(=O)n2nc(OC(=O)c3ccc(C)cc3)cc2N)cc1 = 144
• CNS(=O)(=O)c1cccc(C(=O)OCC(=O)c2cc(C)n(-c3ccc4c(c3)OCO4)c2C)c1 = 156
• Cc1cc(C)n(CC(=O)O)n1 = 121
• Cc1ccc(C(=O)N2CCCC(c3nc4c(nnn4Cc4ccccc4)c(=O)[nH]3)C2)cc1 (stereo not given) = 104
• COc1ccc(N2CCN(CCCNC(=O)C3CCCN(S(=O)(=O)c4cnc[nH]4)C3)CC2)cc1 (stereo not given) = 122
• COc1ccc(-n2ncc3c(NCCCN4CCOCC4)ncnc32)cc1 = 118
• Cc1cc(C(=O)NCCN2CCN(c3cccc(Cl)c3)CC2)n(-c2ccccc2)n1 = 108
• COc1cc(OC)c(-c2nn3c(C4CCCCC4)nnc3s2)cc1OC = 126
• c1ccc2c(c1)sc1nnnn12 = 115
• CCCn1c(=O)c2ccccc2n2c(SCCOc3ccccc3F)nnc12 = 156
• CC(NS(=O)(=O)c1ccccc1)C(c1cccs1)N1CCN(C)CC1 (stereo not given) = 137
• O=C(Cn1nc(-c2ccc3c(c2)OCCO3)ccc1=O)Nc1ccc(N2CCOCC2)cc1 = 111
• CC(C)Cc1nc(S(=O)(=O)c2ccc(Cl)cc2)c(N2CCOCC2)o1 = 105
• O=C(Nc1ccon1)c1csc2c1CCCC2 = 107
• c1ccc(OCc2nc3ccccc3[nH]2)cc1 = 132
• Cc1ccc2c(c1)nnn2C1CCN(C(=O)NC23CC4CC(CC(C4)C2)C3)CC1 = 98.1
• COCCN(CCOC)c1ncnc2c1cnn2-c1ccccc1 = 107
• O=C(COC(=O)C12CC3CC(CC(O)(C3)C1)C2)N1CCN(S(=O)(=O)c2ccc(Cl)cc2)CC1 = 97.2
• O=C1c2ccccc2C(=O)N1CCCCN1CCN(CCCCN2C(=O)c3ccccc3C2=O)CC1 = 86.8
• O=C(C1CCCN(S(=O)(=O)c2cccnc2)C1)N1CCN(c2ccccn2)CC1 (stereo not given) = 108
• Cc1ccc(C)c(/C(O)=C2\C(=O)C(=O)N(CCCN3CCOCC3)C2c2cccnc2)c1 (stereo not given) = 127
• O=C(NC1CC1)c1ccc(S(=O)(=O)NCC2CCCCC2)cc1 = 112
• COc1ccc(C(=O)N2CCN(S(=O)(=O)c3cc(Cl)ccc3OC)CC2)cc1 = 106
• O=C(Cn1ccc2ccccc2c1=O)Nc1ccc2c(c1)OCO2 = 91.4
• CCOc1cc(C(=O)N(C)Cc2cc3cc(OC)ccc3[nH]c2=O)cc(OCC)c1OCC = 211
• COc1ccc(Cl)cc1-c1n[nH]c(=S)o1 = 111
• CCc1cccc(NC(=O)C2CCCN(S(=O)(=O)c3c(C)[nH]c(=O)[nH]c3=O)C2)c1 (stereo not given) = 104
• CC1CN(CC(O)COc2ccccc2C(C)(C)C)CC(C)O1 (stereo not given) = 101
• CCc1c(C)c2c(C)nn(-c3ccccc3)c2[nH]c1=O = 123
• CC12CCC(C(=O)N3CCCCC3)(CC1=O)C2(C)C (stereo not given) = 126
• CCn1c(=S)ccc2ccc(OC)cc21 = 120
• CCCCCCn1c(SCC(=O)OC)nc2c1c(=O)[nH]c(=O)n2C = 91.4
• COc1ccc(OCCSc2nc3ccccc3n2CC(=O)O)cc1 = 133
